Molecular target: Prolyl endopeptidase FAP (Homo sapiens, UniProt Q12884)
Sequence (Q12884 whole entry): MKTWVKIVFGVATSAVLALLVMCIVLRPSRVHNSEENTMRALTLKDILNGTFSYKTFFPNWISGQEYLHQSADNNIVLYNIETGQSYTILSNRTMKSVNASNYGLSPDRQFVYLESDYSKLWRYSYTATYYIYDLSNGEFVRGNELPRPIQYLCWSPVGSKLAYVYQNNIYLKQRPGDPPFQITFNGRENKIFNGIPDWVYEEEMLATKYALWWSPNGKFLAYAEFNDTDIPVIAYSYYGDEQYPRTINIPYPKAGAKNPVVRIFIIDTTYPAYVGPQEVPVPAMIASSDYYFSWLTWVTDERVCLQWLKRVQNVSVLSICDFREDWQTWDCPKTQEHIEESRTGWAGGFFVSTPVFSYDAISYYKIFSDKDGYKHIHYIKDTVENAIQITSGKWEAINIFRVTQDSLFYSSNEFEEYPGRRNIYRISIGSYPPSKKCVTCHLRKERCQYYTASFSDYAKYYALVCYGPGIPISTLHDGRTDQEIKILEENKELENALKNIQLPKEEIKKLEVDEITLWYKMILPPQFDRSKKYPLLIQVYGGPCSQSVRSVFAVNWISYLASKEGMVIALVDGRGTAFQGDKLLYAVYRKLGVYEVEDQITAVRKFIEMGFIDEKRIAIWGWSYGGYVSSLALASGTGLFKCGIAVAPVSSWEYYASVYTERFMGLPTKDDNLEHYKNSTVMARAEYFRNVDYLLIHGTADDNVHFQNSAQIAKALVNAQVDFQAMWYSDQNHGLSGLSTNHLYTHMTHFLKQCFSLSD
Below are Ki values for Prolyl endopeptidase FAP (Homo sapiens, UniProt Q12884) collected from several publications.

Known Ki results, listed for orientation:
>>> df
                                   compound   result
0  NC1CN(c2cc(-c3cccc(S(=O)(=O)N4CCOCC4)c3)ncn2)CC1c1cc(F)c(F)cc1F (centres undefined)  > 30 µM
1   O=C(N[C@H]1CO[C@H]2CCCN2C1=O)OCc1ccccc1  > 10 µM
2  C#C[C@H]1CC[C@@H](C#N)N1C(=O)CNC1(C)CCN(c2ccc(C#N)cn2)CC1  > 30 µM

Next, consider the following compound.
Asked: Return Ki measured with Prolyl endopeptidase FAP (Homo sapiens, UniProt Q12884) given this compound: CS(=O)(=O)c1cccc(-c2cc(N3CC(N)C(c4cc(F)c(F)cc4F)C3)ncn2)c1 (centres undefined)
Given back: > 30 µM
